read-out: Pselectin, SELP (gene 6403); assay: BSK_4H_Pselectin: BioMAP Diversity Plus: 4H Assay for Pselectin Biomarker Activity (AID 2283026); details: primary human endothelial cells (HUVEC); actives raise or lower the signal
Calls of active or inactive are those of the source. The calls were made as follows: active = hit-call score of the fitted dose curve at least 0.9, where 1 is the maximum; inactive = score below 0.9.
Use one of these outcomes when replying: active, inactive

molecule=N#Cc1c[nH]cc1-c1cccc2c1OC(F)(F)O2 answer_label=active
molecule=Cc1ccc(N=CN(C)C=Nc2ccc(C)cc2C)c(C)c1 answer_label=active
molecule=Clc1cccc(C(Cl)(Cl)Cl)n1 answer_label=inactive
molecule=N#CN=C1SCCN1Cc1ccc(Cl)nc1 answer_label=inactive
molecule="CC1(C)C(C=C(Cl)Cl)C1C(=O)OC(C#N)c1cccc(Oc2ccccc2)c1 (configuration not stated)" answer_label=inactive

(Q) // return assay outcome for CCOc1cc(C(C)(C)C)ccc1C1COC(c2c(F)cccc2F)=N1 (configuration not stated)
(A) active
